- Test system: HCV genotype 1b (Con1) replicon in HUH-7 cells
- Test Details: HCV replicon luciferase reporter assay, genotype 1b
- Type: cell-based
- Run Parameters: Hepatitis C virus, Huh-7, 72 h, HCV genotype 1b replicon luciferase, 3 days incubation, read-out: LE_1b (EC50, range)
pEC50: −log10 of the molar value.
Hi there, I'd appreciate the recorded pEC50 for every entry that follows.

Asked: // pEC50 lookup, key: `CC(C)Oc1ccc2c(O[C@@H]3C[C@H]4C(=O)N[C@]5(C(=O)NS(=O)(=O)C6CC6)C[C@H]5/C=C\CC[C@@H](C)C[C@@H](C)[C@H](NC(=O)O[C@H](C)C(F)(F)F)C(=O)N4C3)nccc2c1`
Given back: > 8.26

Asked: // pEC50 lookup, key: `CCOc1cc2ccccc2c(O[C@@H]2C[C@H]3C(=O)N[C@]4(C(=O)NS(=O)(=O)C5(CF)CC5)C[C@H]4/C=C\CC[C@@H](C)C[C@@H](C)[C@H](NC(=O)OC(C)(C)C)C(=O)N3C2)n1`
Given back: 9.30 to 10.00

Asked: // pEC50 lookup, key: `COc1nnc(O[C@@H]2C[C@H]3C(=O)N[C@]4(C(=O)NS(=O)(=O)C5CC5)C[C@H]4/C=C\CC[C@@H](C)C[C@@H](C)[C@H](NC(=O)OC(C)(C)C(F)(F)F)C(=O)N3C2)c2ccccc12`
Given back: > 8.26

Asked: // pEC50 lookup, key: `CCn1nc(O[C@@H]2C[C@H]3C(=O)N[C@]4(C(=O)NS(=O)(=O)C5CC5)C[C@H]4/C=C\CC[C@@H](C)C[C@@H](C)[C@H](NC(=O)OC(C)(C)C(F)(F)F)C(=O)N3C2)c2ccccc2c1=O`
Given back: 6.99 to 8.32

Asked: // pEC50 lookup, key: `COc1cc2ccnc(O[C@@H]3C[C@H]4C(=O)N[C@]5(C(=O)NS(=O)(=O)C6(C)CC6)C[C@H]5/C=C\CC[C@@H](C)C[C@@H](C)[C@H](NC(=O)OC(C)(C)C(C)(F)F)C(=O)N4C3)c2cc1OC`
Given back: 8.30 to 9.00

Asked: // pEC50 lookup, key: `CC[C@@H]1C[C@H](C)CC/C=C\[C@@H]2C[C@@]2(C(=O)NS(=O)(=O)C2(CF)CC2)NC(=O)[C@@H]2C[C@@H](Oc3nccc4c5c(ccc34)N(C)CCO5)CN2C(=O)[C@H]1NC(=O)OC(C)(C)C(C)(F)F`
Given back: 7.46 to 8.30

Asked: // pEC50 lookup, key: `COc1ccc2c(O[C@@H]3C[C@H]4C(=O)N[C@]5(C(=O)NS(=O)(=O)C6(C)CC6)C[C@H]5/C=C\CC[C@H](C)C[C@@H](C)[C@H](NC(=O)NC(C)(C)C)C(=O)N4C3)nccc2c1`
Given back: > 8.26

Asked: // pEC50 lookup, key: `COc1ccc2c(O[C@@H]3C[C@H]4C(=O)N[C@]5(C(=O)NS(=O)(=O)C6CC6)C[C@H]5/C=C\CC[C@H](C)C[C@@H](C)[C@H](NC(=O)O[C@@H]5C[C@@H]6C[C@@H]6C5)C(=O)N4C3)nc(-c3ccccc3)cc2c1`
Given back: > 8.26

Asked: // pEC50 lookup, key: `CCOc1cc2ccccc2c(O[C@@H]2C[C@H]3C(=O)N[C@]4(C(=O)NS(=O)(=O)C5(CF)CC5)C[C@H]4/C=C\CC[C@@H](C)C[C@@H](C)[C@H](NC(=O)OC(C)(C)C(C)(F)F)C(=O)N3C2)n1`
Given back: 9.30 to 10.00

----------
Hi there, I'd appreciate the recorded pEC50 for every entry that follows.
- Test system: HCV genotype 1b (Con1) replicon in HUH-7 cells
- Test Details: HCV replicon luciferase reporter assay, genotype 1b
- Assay type: cell-based
- Run Parameters: Hepatitis C virus, Huh-7, 72 h, HCV genotype 1b replicon luciferase, 3 days incubation, read-out: LE_1b (EC50, range)
pEC50: −log10 of the molar value.

Asked: // pEC50 lookup, key: COc1ccc2nc(O[C@@H]3C[C@H]4C(=O)N[C@]5(C(=O)NS(=O)(=O)C6(C)CC6)C[C@H]5/C=C\CC[C@@H](C)C[C@@H](C)[C@H](NC(=O)OC(C)(C)C)C(=O)N4C3)c(-c3ccc(OC(C)C)cc3)nc2c1 [Compound 4260]
Given back: 8.30 to 9.00

Asked: // pEC50 lookup, key: CCOc1ccc2c(O[C@@H]3C[C@H]4C(=O)N[C@]5(C(=O)NS(=O)(=O)C6(C)CC6)C[C@H]5/C=C\CC[C@@H](C)C[C@@H](CC)[C@H](NC(=O)OC(C)(C)C)C(=O)N4C3)nccc2c1 [Compound 5373]
Given back: 9.00 to 9.29

Asked: // pEC50 lookup, key: CC[C@@H]1C[C@H](C)CC/C=C\[C@@H]2C[C@@]2(C(=O)NS(=O)(=O)C2(C)CC2)NC(=O)[C@@H]2C[C@@H](Oc3nccc4cc(OC)c(Cl)cc34)CN2C(=O)[C@H]1NC(=O)OC(C)(C)C(F)F [Compound 3226]
Given back: 9.00 to 9.29

Asked: // pEC50 lookup, key: [2H]C([2H])([2H])C(OC(=O)N[C@@H]1C(=O)N2C[C@H](Oc3nccc4c5c(ccc34)N(C)CCO5)C[C@H]2C(=O)N[C@]2(C(=O)NS(=O)(=O)C3CC3)C[C@H]2/C=C\CC[C@H](C)C[C@H]1C)(C([2H])([2H])[2H])C(F)(F)F [Compound 5279]
Given back: 6.99 to 8.32

----------
- Tested on: HCV genotype 1b (Con1) replicon in HUH-7 cells
- Test Details: HCV replicon luciferase reporter assay, genotype 1b
- Format: cell-based
- Run Parameters: Hepatitis C virus, Huh-7, 72 h, HCV genotype 1b replicon luciferase, 3 days incubation, read-out: LE_1b (EC50, range)
Hi there, I'd appreciate the recorded EC50 for every entry that follows.

Asked: // EC50 lookup, key: CC(C)Oc1cc2ccccc2c(O[C@@H]2C[C@H]3C(=O)N[C@]4(C(=O)NS(=O)(=O)C5(C)CC5)C[C@H]4/C=C\CC[C@H](C)C[C@@H](C)[C@H](NC(=O)OC(C)(C)C(C)(F)F)C(=O)N3C2)n1 [Compound 6105]
Given back: 1.01 to 5 nM

Asked: // EC50 lookup, key: COc1cc2ccnc(O[C@@H]3C[C@H]4C(=O)N[C@]5(C(=O)NS(=O)(=O)C6(CF)CC6)C[C@H]5/C=C\CC[C@@H](C)C[C@@H](C)[C@H](NC(=O)c5ccccc5C(F)(F)F)C(=O)N4C3)c2cc1F [Compound 4096]
Given back: < 5.46 nM

Asked: // EC50 lookup, key: C[C@@H]1CC/C=C\[C@@H]2C[C@@]2(C(=O)NS(=O)(=O)C2(C)CC2)NC(=O)[C@@H]2C[C@@H](Oc3nccc4c5c(ccc34)N(C)CCO5)CN2C(=O)[C@@H](NC(=O)OC(C)(C)C(F)(F)F)[C@H](C)C1 [Compound 5296]
Given back: < 5.46 nM

Asked: // EC50 lookup, key: CCCOc1cnc(O[C@@H]2C[C@H]3C(=O)N[C@]4(C(=O)NS(=O)(=O)C5(C)CC5)C[C@H]4/C=C\CC[C@@H](C)C[C@@H](C)[C@H](NC(=O)O[C@@H]4C[C@@H]5C[C@@H]5C4)C(=O)N3C2)c2ccccc12 [Compound 5081]
Given back: < 5.46 nM

----------
- System: HCV genotype 1b (Con1) replicon in HUH-7 cells
- Test Details: HCV replicon luciferase reporter assay, genotype 1b
- Type: cell-based
- Run Parameters: Hepatitis C virus, Huh-7, 72 h, HCV genotype 1b replicon luciferase, 3 days incubation, read-out: LE_1b (EC50, range)
Measurement Type: EC50

Asked: // EC50 lookup, key: `COc1cnc(O[C@@H]2C[C@H]3C(=O)N[C@]4(C(=O)NS(=O)(=O)C5(CF)CC5)C[C@H]4/C=C\CC[C@@H](C)C[C@@H](C)[C@H](NC(=O)OC(C)(C)C)C(=O)N3C2)c2cc(F)ccc12`
Given back: < 5.46 nM

Asked: // EC50 lookup, key: `CCOc1cnc(O[C@@H]2C[C@H]3C(=O)N[C@]4(C(=O)NS(=O)(=O)C5(C)CC5)C[C@H]4/C=C\CC[C@@H](C)C[C@@H](C)[C@H](NC(=O)Oc4ccc(F)cc4F)C(=O)N3C2)c2ccccc12`
Given back: 4.82 to 103 nM

Asked: // EC50 lookup, key: `COc1ccc2c(O[C@@H]3C[C@H]4C(=O)N[C@]5(C(=O)NS(=O)(=O)C6CC6)C[C@H]5/C=C\CC[C@@H](C)C[C@@H](C)[C@H](NC(=O)OC(C)(C)C(F)(F)F)C(=O)N4C3)nc(-c3ccc(OC(C)C)cn3)cc2c1`
Given back: < 5.46 nM

Asked: // EC50 lookup, key: `COc1cnc2ccc(O[C@@H]3C[C@H]4C(=O)N[C@]5(C(=O)NS(=O)(=O)C6(C)CC6)C[C@H]5/C=C\CC[C@@H](C)C[C@@H](C)[C@H](NC(=O)OC(C)(C)C)C(=O)N4C3)cc2n1`
Given back: 1.01 to 5 nM
